Target: T1, purified human Factor Bb (human, UniProt P00751 260-764)
T1 construct: Bought purified protein (Complement Technologies); also called fBb; complement factor Bb
T1 sequence (P00751 260-764 limits assumed): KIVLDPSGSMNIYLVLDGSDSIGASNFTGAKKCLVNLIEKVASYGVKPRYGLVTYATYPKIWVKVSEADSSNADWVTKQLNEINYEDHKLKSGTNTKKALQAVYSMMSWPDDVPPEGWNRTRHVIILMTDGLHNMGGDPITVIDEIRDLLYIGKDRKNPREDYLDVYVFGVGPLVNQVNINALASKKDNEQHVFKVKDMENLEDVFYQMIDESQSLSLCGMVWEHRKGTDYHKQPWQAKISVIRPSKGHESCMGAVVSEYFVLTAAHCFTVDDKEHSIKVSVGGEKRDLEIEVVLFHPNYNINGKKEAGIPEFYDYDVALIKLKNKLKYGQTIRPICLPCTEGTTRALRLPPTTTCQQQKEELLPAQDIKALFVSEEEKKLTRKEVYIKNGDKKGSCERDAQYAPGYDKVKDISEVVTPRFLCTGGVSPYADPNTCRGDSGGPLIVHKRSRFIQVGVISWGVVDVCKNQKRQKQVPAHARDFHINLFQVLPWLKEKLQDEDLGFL
Assay: ELISA; human Factor Bb coated at 1 µg/mL, mAb in 3-fold dilutions from 10 µg/mL, HRP goat anti-mouse, OD450
value type: EC50 (read off the curve)

Which EC50 (read off the curve) is reported for this binder? anti-factor Bb monoclonal antibody M18 (antibody, V domains shown, Mouse monoclonal purified from hybridoma supernatant) VH: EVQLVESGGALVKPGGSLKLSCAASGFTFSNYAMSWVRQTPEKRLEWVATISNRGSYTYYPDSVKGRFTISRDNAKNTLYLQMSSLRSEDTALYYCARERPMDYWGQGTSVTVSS VL: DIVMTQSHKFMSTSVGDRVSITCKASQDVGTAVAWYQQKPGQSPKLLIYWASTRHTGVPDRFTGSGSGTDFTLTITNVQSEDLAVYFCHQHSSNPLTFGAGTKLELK
~0.3 nM

Which EC50 (read off the curve) is reported for this binder? anti-factor Bb monoclonal antibody M12 (antibody, V domains shown, Mouse monoclonal purified from hybridoma supernatant) VH: EVQLQQSGPELVKPGASVKMSCKASGYSFTDYLMNWVKQSHGKSLEWIGRINPYNGDAFYNQRFKGKATLTVDKSSSTAHMELRSLTSEDSALYYCARLENDYGFTYWGQGTLVTVSA VL: DIVMTQAAFSNPVTLGTSASISCSSSKSLLHSNGITYLYWYLQRPGQSPQLLIYRMSNLASGVPDRFSGSGSGTDFTLRISRVEAEDVGVYYCAQMLERPWTFGGGTKLEIK
~0.7 nM

Which EC50 (read off the curve) is reported for this binder? anti-factor Bb monoclonal antibody M10 (antibody, V domains shown, Mouse monoclonal purified from hybridoma supernatant) VH: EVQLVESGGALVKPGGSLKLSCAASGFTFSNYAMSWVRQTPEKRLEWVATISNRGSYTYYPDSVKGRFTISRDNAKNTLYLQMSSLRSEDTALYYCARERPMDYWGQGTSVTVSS VL: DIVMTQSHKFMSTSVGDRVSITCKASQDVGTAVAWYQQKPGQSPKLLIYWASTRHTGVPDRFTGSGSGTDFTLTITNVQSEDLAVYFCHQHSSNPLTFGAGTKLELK
~0.3 nM

Which EC50 (read off the curve) is reported for this binder? anti-factor Bb monoclonal antibody M4 (antibody, V domains shown, Mouse monoclonal purified from hybridoma supernatant; also called Factor B/Bb antibody M4) VH: EVQLQQSGPELVKPGASVKMSCKASGYSFTDYLMNWVKQSHGKSLEWIGRINPYNGDAFYNQRFKGKATLTVDKSSSTAHMELRSLTSEDSALYYCARLENDYGFTYWGQGTLVTVSA VL: DIVMTQAAFSNPVTLGTSASISCSSSKSLLHSNGITYLYWYLQRPGQSPQLLIYRMSNLASGVPDRFSGSGSGTDFTLRISRVEAEDVGVYYCAQMLERPWTFGGGTKLEIK
~0.8 nM

The measured values listed here are drawn from patent US20240228599A1.
